Let's look at some binders and their measured pEC50.
target_under_test: T1, CD47/ECD (Gln 19 - Pro 139, His Tag, ACROBiosystems) (Homo sapiens, UniProt Q08722-3)
T1 construct: also called CD47 antigen; CD47/ECD antigen; source: bought: ACROBiosystems (expressed from human 293 cells, HEK293)
assay_notes: ELISA; CD47/ECD coated (0.2 ug per well, PBS pH 7.4, 16 h at 4°C), blocked with 2% BSA in PBST; IgG titrated at 11 two-fold dilutions in PBST with 0.5% BSA, 1 h; detected with HRP/anti-human IgG conjugate; EC50 by ED50 Plus v1.0; n = 3
experimental_conditions: both partners purified
pEC50: −log10 of the molar value.
measured_endpoint: pEC50

binder: 7DC2 monoclonal antibody (chimeric anti-human CD47, mouse Fab plus human IgG1 Fc) (antibody, V domains shown, human IgG1 Fc fragment; mouse light chain of 7DC2; Chimeric IgG1; also called 7DC2 mAb; 7CD2; source: Expi293, transfected with light and heavy chain plasmids, purified; copies: 2 + 2) VH: QVQLQQSGPELVKPGASVKMSCKASGYTFTNYFMHWVKQKPGQGLEWIGYINPYNDGTKYNEKFKGKATLTSDKSSSTAYMELSSLTSEDSAVYYCTKGGRYSMDYWGQGTTLTVSS VL: DVVMTQTPLSLPVRLGDEVSISCRSSQTIVFTNGNTYLEWYLQKPGQSPKLLIYKVSNRFSGVPDRFSGSGSGTDFTLTISRVEAEDLGIYYCFQGSHVPYTFGGGTKLELK
reading: 9.82
--
binder: 7DC4-VCMMAE (7DC4 conjugated with maleimidocaproyl-valine-citrulline-monomethyl auristatin E) (antibody, V domains shown, as the heavy chain of m2 (mouse Fab part); human IgG1 Fc fragment; as the light chain of m2; Antibody-drug conjugate of m2; drug distribution 2, 4, 6 and 8 per antibody; also called 7DC4-CVMMAE; 7DC4-MMAE; source: 7DC4 from Expi293, reduced with TCEP, conjugated with VCMMAE, purified (Amicon-30 kDa); copies: 2 + 2) VH: QVQLKQSGAELVQPGASVKLSCKASGYTFTNYYMYWLRQRPGQGLEWIGEINPSNGGTDFNEKFKSKATLTVDKSSSTAFMQLSSLTSDDSAVYYCARGGFTMDYWGQGTTVTVSS VL: DVVMTQTPLSLPVSLGDQASISCRSSQSLVHSNGNTYLHWYLQKPGQSPKLLIYKVSNRFSGVPDRFSGSGSGTDFTLKISRVEAEDLGVYFCSQSTHVPLTFGAGTKLELK
reading: 9.89
--
binder: 7DC2-VCMMAE (7DC2 conjugated with maleimidocaproyl-valine-citrulline-monomethyl auristatin E) (antibody, V domains shown, as the heavy chain of m1 (mouse Fab part); human IgG1 Fc fragment; as the light chain of m1; Antibody-drug conjugate of m1; drug distribution 2, 4, 6 and 8 per antibody; also called 7DC-VCMMAE; source: 7DC2 from Expi293, reduced with TCEP, conjugated with VCMMAE, purified (Amicon-30 kDa); copies: 2 + 2) VH: QVQLQQSGPELVKPGASVKMSCKASGYTFTNYFMHWVKQKPGQGLEWIGYINPYNDGTKYNEKFKGKATLTSDKSSSTAYMELSSLTSEDSAVYYCTKGGRYSMDYWGQGTTLTVSS VL: DVVMTQTPLSLPVRLGDEVSISCRSSQTIVFTNGNTYLEWYLQKPGQSPKLLIYKVSNRFSGVPDRFSGSGSGTDFTLTISRVEAEDLGIYYCFQGSHVPYTFGGGTKLELK
reading: 9.82
--
binder: 7DC4 monoclonal antibody (chimeric anti-human CD47, mouse Fab plus human IgG1 Fc) (antibody, V domains shown, human IgG1 Fc fragment; mouse light chain of 7DC4; Chimeric IgG1; also called 7DC4 mAb; 7CD4; source: Expi293, transfected with light and heavy chain plasmids, purified; copies: 2 + 2) VH: QVQLKQSGAELVQPGASVKLSCKASGYTFTNYYMYWLRQRPGQGLEWIGEINPSNGGTDFNEKFKSKATLTVDKSSSTAFMQLSSLTSDDSAVYYCARGGFTMDYWGQGTTVTVSS VL: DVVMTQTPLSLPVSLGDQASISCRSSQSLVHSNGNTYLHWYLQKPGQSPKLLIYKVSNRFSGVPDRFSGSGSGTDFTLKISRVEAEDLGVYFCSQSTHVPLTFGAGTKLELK
reading: 9.89
